List of viability, T/C values.
Test system: 743489-274-T-PDC complex spheroid viability;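 note: spheroids exposed to compounds for 7 days before readout; 100% = DMSO vehicle control wells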
Assay: Anticancer human tumor 743489-274-T-PDC patient-derived renal cell carcinoma cell line growth inhibition
Settings: second compound 0.316 µM; first compound 0.000316 µM; stronger effect = lower value
Measured endpoint: viability, T/C (%)

1) CC(C)CC(NC(=O)CNC(=O)c1cc(Cl)ccc1Cl)B1OC(=O)CC(CC(=O)O)(C(=O)O)O1 (centres undefined) + NC1CCC(NC2CC2c2ccccc2)CC1 :: 119
2) CC[C@@]1(O)C(=O)OCc2c1cc1n(c2=O)Cc2cc3c(CN(C)C)c(O)ccc3nc2-1 + NC1CC1c1ccc(-c2cccc(O)c2)cc1 :: 103
3) Cn1ncnc1C1c2n[nH]c(=O)c3cc(F)cc(c23)NC1c1ccc(F)cc1 (centres undefined) + NC1CC1c1ccc(-c2cccc(O)c2)cc1 :: 106
4) CC[C@@]1(O)C(=O)OCc2c1cc1n(c2=O)Cc2cc3c(CN(C)C)c(O)ccc3nc2-1 + NC1CCC(NC2CC2c2ccccc2)CC1 :: 107

Origin of the recorded values: PubChem BioAssay AID1918942
